pIC50 values for the molecules below.
System: 454973-116-R2-J3-PDC spheroids, viability, % test/control;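 further: spheroids exposed to compounds for seven days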
Assay: Anticancer human tumor 454973-116-R2-J3-PDC patient-derived pancreatic carcinoma cell line growth inhibition [GQUAD]
Conditions: curve of first compound; second compound 1 µM; spheroids with HUVEC and MSC
Description: DNA G-quadruplex Stabilizer Agents in Combinations in Complex Spheroids A high-throughput screen of multi-cell type tumor spheroids was designed to identify active combinations of DNA G-quadruplex stabilizer agents and targeted small molecules. […] Compounds. […] If the clinical Cmax for an agent had not been determined, the highest concentration tested was 10 microM. […]
Please keep in mind that pIC50 is minus log10 of the molar concentration; only the number is needed.

{"molecule": "CCCS(=O)(=O)Nc1ccc(F)c(C(=O)c2c[nH]c3ncc(-c4ccc(Cl)cc4)cc23)c1F + CN(C)c1ccc(Nc2c3ccc(NC(=O)CCN4CCCC4)cc3nc3cc(NC(=O)CCN4CCCC4)ccc23)cc1", "property_measured": "pIC50", "number": 5.26}

// next entry
*Q* What value of pIC50 has been recorded for this entry: CCc1c2c(nc3ccc(O)cc13)-c1cc3c(c(=O)n1C2)COC(=O)[C@]3(O)CC + Cc1cnc(CNC(=O)c2c(=O)c3ccc(N4CCCN(C)CC4)nc3n3c2sc2ccccc23)cn1
*A* 8.84
